# subject.of.test: human complement factor B (CVF-Bb complex) (Homo sapiens (Human), UniProt P00751)
# method.notes: Human Complement Factor B ELISA Assay
# Assay type: biochemical
# run.parameters: CVF-Bb complex 3 nM, 1 hour preincubation with compound at room temperature, human C3 substrate 1 μM, C3a quantified by ELISA; read-out: Factor B IC50

# molecule.smiles, IC50 (µM)
measured = [
    ("COc1cc2c(N)nc(N3CCN(C(=O)c4cc5cc(F)cc(F)c5[nH]4)CC3)nc2c(F)c1OC", 0.017),
    ("COc1cc2c(N)nc(N3CCN(C(=O)C[C@@H](NCC(F)(F)F)c4ccc(F)cc4)CC3)nc2c(F)c1OC", 0.03),
    ("CCC[C@H]1CN(C(=O)C[C@@H]2CCCN2)CCN1c1nc(N)c2cc(OC)c(OC)c(F)c2n1", 0.27),
    ("COc1cc2c(N)nc(N3CCN(C(=O)[C@@H]4CCc5ccccc5[C@@H]4N)CC3)nc2c(F)c1OC", 0.76),
]
